# test.description: Cytotoxicity against human MCF-10A cells assessed as reduction in cell viability measured after 48 hrs by CCK-8 assay
# Type: toxicity, cell-based

compound: COc1cc(/C=C/C(=O)N2CCC=CC2=O)cc(OC)c1OCCCCCCCCCCCCOc1no[n+]([O-])c1S(=O)(=O)c1ccccc1
unit.of.measurement: µM
IC50 at 48 h: 123

compound: COc1cc(/C=C/C(=O)N2CCC=CC2=O)cc(OC)c1OC [PIPLARTINE]
unit.of.measurement: µM
IC50 at 48 h: 5.3

compound: COc1cc(/C=C/C(=O)N2CCC=CC2=O)cc(OC)c1OCCCOc1no[n+]([O-])c1S(=O)(=O)c1ccccc1
unit.of.measurement: µM
IC50 at 48 h: 3.5

compound: COc1cc(/C=C/C(=O)N2CCC=CC2=O)cc(OC)c1OCCCCCCOc1no[n+]([O-])c1S(=O)(=O)c1ccccc1
unit.of.measurement: µM
IC50 at 48 h: 3.6
